assay: growth suppression of yeast trafficking mutant, preliminary HTS, modulators of trafficking downstream of Golgi apparatus project, 1536-format plate, OD 615 nm (AID 637); settings: yeast transport mutant growth, absorbance 615 nm, 18 h; hits give high values
Activity calls are given as the source filed them. No stated cut-off is given here; in the data, active means inhibition above about 30%; inactive means the rest.
Result type: inhibition

-- ask Which inhibition is listed for CCOc1ccc(N(C(C)C(=O)NC2CCCCCC2)S(C)(=O)=O)cc1 (stereo unspecified) ?
-- reply -3.83% (inactive)

-- ask Now the same for O=C(NC(=O)c1cccc(F)c1)OC[C@@H]1CCCN2CCCC[C@H]12
-- reply 1.48% (inactive)

-- ask What do you get for CCCCNC(=O)Cn1c(=O)n(C)c2ccccc21 ?
-- reply -2% (inactive)

-- ask Also need CN(CCNS(=O)(=O)c1ccc2c(c1)oc(=O)n2C)Cc1ccccc1 , thanks.
-- reply -2.33% (inactive)

-- ask Another compound: O=C(CSc1nnc(Cn2c(=O)sc3ccccc32)n1-c1ccccc1)Nc1nccs1
-- reply -4.43% (inactive)

-- ask What would you report for CC1(C)CC(=O)C(C=NCCO)=C(O)C1 ?
-- reply 5.83% (inactive)

-- ask Another compound to look at: O=C(c1cc2ccccc2oc1=O)N1CCN(c2ccc(N3CCOCC3)nn2)CC1
-- reply -2% (inactive)

-- ask CNC(=O)c1ccsc1NC(=O)CN1C(=O)CCC1=O , same question.
-- reply -0.67% (inactive)

-- ask Further, for CCSc1nc2c(c(=O)[nH]1)C(c1cccnc1)C(C(=O)OC(C)C)=C(C)N2 (stereo unspecified) ?
-- reply -0.33% (inactive)

-- ask Now try CCc1cc2c(NCCC(=O)O)ncnc2s1 .
-- reply -0.48% (inactive)

-- ask Next compound: Cc1ccccc1OCc1nnc2n1CC(C)S2 (stereo unspecified)
-- reply -2% (inactive)

----------
assay: yeast transport mutant growth inhibition pilot in 384-well plates, post-Golgi transport modulator project (AID 636); settings: absorbance 615 nm, about 18 h, hits give high values
Field: inhibition. Provide a value for each of the molecules that follow.
Kindly answer with a numeric value in %, unit omitted.

-- ask Reported inhibition, molecule Cc1ccc(NC(=O)c2cc(-c3ccc(C)o3)nc3ccccc23)nc1 : ____
-- reply -7.43

-- ask Then this molecule: Cc1cc(C)cc(N(CC(=O)NC2CCC(C)CC2)S(=O)(=O)c2c(C)noc2C)c1 (stereo not drawn)
-- reply -3.59

-- ask Consider next the molecule O=C(c1cnc2n(c1=O)CCS2)N1CCc2ccccc21 in the same way.
-- reply -2.13

-- ask Would you mind doing COc1cccc(C2C(C(=O)c3cccs3)=C(O)C(=O)N2CCCn2ccnc2)c1OC (stereo not drawn) as well?
-- reply -7.47

-- ask Consider next the molecule COc1ccc(CN2C(=O)CN=C2Nc2ccc(C)cc2C)cc1 in the same way.
-- reply -3.82

-- ask Try COc1ccc(OC)c(C2CC(=O)NC(SC)=C2C#N)c1 (stereo not drawn) next.
-- reply -5.33

-- ask Param item: COC(=O)c1oc2ccc(Br)cc2c1NC(C)=O
-- reply -4

-- ask Same again, this time with NC(=O)c1cccc2c1C(=O)N(C1CCCCC1)C2
-- reply -0.77

----------
Would you kindly list inhibition for each of these compounds?
test: RAM pathway blockade in budding yeast – dse1pr::URA3 reporter, 5-FOA selection, pilot screen (AID 869);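 further: 0% = DMSO wells with no growth and 100% = 10 µM 1-NA-PP1 with full growth; RAM network block rescues cells from 5-FOA so hits raise OD615 growth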; conditions: S. cerevisiae dse1pr::URA3 5-FOA growth, OD615, 2 d; at 10 µM; hits give high values; strain carries analog-sensitive mutant Cbk1 kinase
Lab book: enter the figure in %, no units written.

-- ask Endpoint output: inhibition of COc1ccc(-c2[nH]c(-c3ccc(F)cc3)nc2SCC(=O)NCc2ccco2)cc1OC . Value?
-- reply 0.93

-- ask And for Cc1ccc(N2CCN(S(=O)(=O)N(C)C)CC2)c(C)c1 ?
-- reply 2.69

-- ask Same thing, different compound: S=c1[nH]nc(CSc2nc3ccccc3s2)o1
-- reply 0.95

-- ask Also COC(=O)Cn1c(CN2CCc3ccccc3C2)nc2c1c(=O)n(C)c(=O)n2C ?
-- reply 1.31

-- ask Param item: O=C(CCS(=O)(=O)c1cccc2nsnc12)NCc1ccccc1
-- reply 1.31

-- ask # iterate: CCOc1ccc(CCN2C(=O)C3C4C=CC(C4)C3C2=O)cc1OCC (stereo unspecified)
-- reply 1.38

-- ask Likewise for CCCN1CCC(N(C)CCc2ccc(OC)c(OC)c2)CC1 ?
-- reply 0.465

-- ask Let us now turn to Brc1ccccc1-c1nc(-c2ccccc2)no1
-- reply 0.565

-- ask What do you have for Cn1cccc1Cc1nnc(SCC(=O)NCC2CCCO2)n1-c1ccc(F)cc1 (stereo unspecified) ?
-- reply 0.02

-- ask Input O=C(Cn1ncc2c1-c1ccccc1OC2)N1CCN(c2ccccn2)CC1
-- reply 0.525

-- ask Moving on to the next compound: Oc1ccc(Cl)cc1-c1cc(-c2ccccc2)n[nH]1
-- reply 1.59

-- ask For c1ccc(-c2nnc(SCc3nc4ccccc4[nH]3)o2)cc1 then?
-- reply 1.33

-- ask And then COc1cccc(-c2nc(CS(=O)(=O)CC(=O)Nc3cc(C)ccc3C)c(C)o2)c1 , what is it?
-- reply 3.55

-- ask // same read-out, input: O=C(NCc1ccc2c(c1)OCO2)C1CCCN(S(=O)(=O)c2cccc3cccnc23)C1 (stereo unspecified)
-- reply 0.32

-- ask Same question for CC(=O)C1=C(C)NC(SCC(=O)c2ccc(C)cc2)=C(C#N)C1c1ccco1 (stereo unspecified) please.
-- reply 4.71

-- ask Next compound up: Cc1c(C(=O)NC2CC2)oc2ccc(S(=O)(=O)N3CCCCCC3)cc12
-- reply 0.26

-- ask # repeat for CCN(CC)c1ccc(NC(=O)CN2C(=O)CC(C)(C)S(=O)(=O)c3ccccc32)c(C)c1
-- reply 1.72

-- ask Field entry: COc1ccccc1-n1c(=O)[nH]c2c(C(N)=O)nc(-c3cccnc3)nc21
-- reply 2.47

-- ask Entry to check: CN(C)c1ccc(CN2CCCCCC2)cc1
-- reply 0.44

-- ask And the next one, [O-]/[N+](=C\c1ccc(OC(F)F)cc1)c1ccccc1 ?
-- reply 1.19

-- ask Now the compound Cn1c(=O)oc2cc(S(=O)(=O)N3CCCC(C(=O)NCC4COc5ccccc5O4)C3)ccc21 (stereo unspecified)
-- reply 0.04

-- ask # repeat for Cc1cc(NC(=O)CS(=O)(=O)c2cn(Cc3ccccc3Cl)c3ccccc23)no1
-- reply 2.17

-- ask Then what about the compound CCOc1ccc(-c2cc(CCCC(=O)N3CCN(c4ccc(OC)cc4)CC3)no2)cc1 ?
-- reply 2.54

-- ask Similarly, Cc1nc2nc[nH]c2cc1Br ?
-- reply 0.705

-- ask Please give the result for CN1CCN(C(=O)c2ccccc2NC(=O)Cc2ccccc2)CC1 too.
-- reply 1.83

-- ask For CC(O)c1cccc(NC(=O)CCC(=O)O)c1 (stereo unspecified) then?
-- reply 1.97

-- ask Repeat with O=C1CN(C(=O)COc2ccccc2)CCN1
-- reply 1.35

-- ask // repeat for COc1cccc2cc(C(=O)N3CCC(C)CC3)c(=O)oc12 and report
-- reply 1.17

-- ask Do the same for CCN1C(=O)c2ccccc2S(=O)c2ccc(C(=O)NC3CC3)cc21 (stereo unspecified) please
-- reply 0.16

-- ask Entry CCN(CCC(=O)Nc1cc(OC)cc(OC)c1)Cc1ccccc1 please
-- reply 2.68

-- ask Another compound to look at: Cn1c(=NC(=O)c2ccco2)sc2cccc(F)c21
-- reply 2.1

-- ask Next compound: O=C(Nc1cccc(F)c1)C1C2C=CC3(CN(CCCN4CCOCC4)C(=O)C13)O2 (stereo unspecified)
-- reply 0.595

-- ask // query: Cc1cc(C)n(-c2cc(N3CCOCC3)ncn2)n1
-- reply 0.035

-- ask Now the compound COc1ccc(CCNC(=O)c2cnn3ccccc23)c(OC)c1OC
-- reply 1.33

-- ask Now try COc1ccc(N2CCN(C(=O)CSc3ccccc3)CC2)cc1 .
-- reply 1.16

-- ask Entry to check: COc1ccc(CC(=O)NCc2nnc(SCC(=O)Nc3nccs3)n2-c2ccccc2)cc1
-- reply 1.48

-- ask Moving on to the next compound: O=C(O)c1ccccc1S(=O)(=O)NCC(O)COc1ccc(Br)cc1 (stereo unspecified)
-- reply 1.09

-- ask Quick one: Clc1cccc(N2CCN(Cc3nc(-c4ccccc4)no3)CC2)c1
-- reply -1.2

-- ask Query CC1CCCN(S(=O)(=O)c2coc(C(N)=O)c2)C1 (stereo unspecified) next
-- reply 1.33

-- ask Same again, this time with Cc1nc(Sc2nnnn2-c2ccccc2)c(C#N)c(C)c1C
-- reply 2.97

-- ask What do you have for CCN1CCCC1CNC(=O)Cn1cc2c(n1)CCC(C)C2 (stereo unspecified) ?
-- reply 0.72

-- ask Let us now turn to Cc1cccc(NC(=O)c2ccccc2O)c1C
-- reply 1.33

-- ask Also COc1cccc(CNC(=O)Cn2c(=O)oc3ccccc32)c1OC , if possible.
-- reply 0.75

-- ask Same thing, different compound: CC(=O)c1sc(NC(=O)C2COc3ccccc3O2)nc1C (stereo unspecified)
-- reply 0.05

-- ask Thanks! And CCOC(=O)c1cc2c(=O)n3ccccc3nc2n(CCCOC)c1=NC(=O)C(C)(C)C ?
-- reply 2.98

-- ask Proceed to CCCCOC(=O)c1[nH]c2c(c1C)C(=O)CC(c1cc(OC)c(OC)c(OC)c1)C2 (stereo unspecified)
-- reply 1.75
